Hello, the source for this data is patent US10519154B2, in case you need it.

# ASSAYED TARGET: human M2 receptor (Homo sapiens, UniProt P08172)
# Sequence (P08172 1-466): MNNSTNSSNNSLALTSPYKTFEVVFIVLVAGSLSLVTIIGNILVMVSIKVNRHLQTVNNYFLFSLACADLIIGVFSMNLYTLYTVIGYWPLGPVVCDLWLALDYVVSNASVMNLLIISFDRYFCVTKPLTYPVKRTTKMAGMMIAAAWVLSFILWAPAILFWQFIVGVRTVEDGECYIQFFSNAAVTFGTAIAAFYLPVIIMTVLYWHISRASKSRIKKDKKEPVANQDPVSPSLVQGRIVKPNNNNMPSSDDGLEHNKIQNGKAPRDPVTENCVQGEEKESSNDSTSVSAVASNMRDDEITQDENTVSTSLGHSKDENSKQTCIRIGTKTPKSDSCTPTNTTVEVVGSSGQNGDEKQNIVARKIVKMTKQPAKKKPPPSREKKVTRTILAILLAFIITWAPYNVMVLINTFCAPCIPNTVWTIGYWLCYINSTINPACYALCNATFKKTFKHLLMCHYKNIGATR
# ASSAY NOTES: Functional M2-GIRK1/4 activation test: allosteric potency (EC50) and efficiency
# CONDITIONS USED: Receptor activity EC50, CHO-DUKX-M2-GIRK cells; acetylcholine at EC20; in some cases mean of two or more determinations
pEC50: −log10 of the molar value.
QUANTITY KIND: pEC50

I. O=C(N[C@@H](C1CC1)C(F)(F)F)c1cn(-c2ncc(F)cc2F)c2nc(N3C[C@@H](O)[C@H](O)C3)ccc2c1=O
II. O=C(N[C@H](C1CC1)C(F)(F)F)c1cn(-c2ncc(F)cc2Cl)c2nc(N3C[C@@H](O)[C@H](O)C3)ccc2c1=O
III. CC(NC(=O)c1cn(-c2ncc(F)cc2F)c2nc(N3C[C@@H](O)[C@H](O)C3)ccc2c1=O)(C(F)(F)F)C(F)(F)F
Ask | Rank the compounds listed above in increasing order of pEC50. Lab note: final answer is the ordered label list.
Reply | II, I, III
